Hello, the source for this data is the RNAGym collection of RNA variant scans (doi:10.1073/pnas.2313332121), in case you need it.

B1: TPR t1 (parent)
chain: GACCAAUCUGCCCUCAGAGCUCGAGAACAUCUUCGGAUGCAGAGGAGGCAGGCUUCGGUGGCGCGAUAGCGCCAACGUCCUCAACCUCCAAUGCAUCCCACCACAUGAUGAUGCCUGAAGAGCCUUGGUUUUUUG

- Variants of: B1
- methodDescription: polymerase ribozyme fitness, log enrichment relative to wild type (log ratio); higher = more active; in vitro selection for triplet polymerase activity
Catalogue of variants with associated polymerase ribozyme fitness (log ratio)

>  <mutationKey>
C13A U92C

>  <polymerase ribozyme fitness (log ratio)>
-3.57

$$$$
>  <mutationKey>
G63C C102A

>  <polymerase ribozyme fitness (log ratio)>
-2.59

$$$$
>  <mutationKey>
G42C C49A G69U A90U U109G G128U

>  <polymerase ribozyme fitness (log ratio)>
-6.14

$$$$
>  <mutationKey>
C12G C22U U32G C102A A111U G122U

>  <polymerase ribozyme fitness (log ratio)>
-7.04

$$$$
>  <mutationKey>
G61U U133G

>  <polymerase ribozyme fitness (log ratio)>
-0.566

$$$$
>  <mutationKey>
C56U U81G C97U

>  <polymerase ribozyme fitness (log ratio)>
-1.35

$$$$
>  <mutationKey>
A41U C72G G117C

>  <polymerase ribozyme fitness (log ratio)>
-5.06

$$$$
>  <mutationKey>
C56G A121U

>  <polymerase ribozyme fitness (log ratio)>
1.73

$$$$
>  <mutationKey>
G51C U129C

>  <polymerase ribozyme fitness (log ratio)>
-3.96

$$$$
>  <mutationKey>
G61C G107C C114A A119U

>  <polymerase ribozyme fitness (log ratio)>
-6.57

$$$$
>  <mutationKey>
A2C G52C

>  <polymerase ribozyme fitness (log ratio)>
-2.58

$$$$
>  <mutationKey>
C70U A83U

>  <polymerase ribozyme fitness (log ratio)>
-0.296

$$$$
>  <mutationKey>
A5G C70G G71U G120A U131A

>  <polymerase ribozyme fitness (log ratio)>
-4.58

$$$$
>  <mutationKey>
G117U U129A

>  <polymerase ribozyme fitness (log ratio)>
-3.5

$$$$
>  <mutationKey>
A16U G69U G71U G117C

>  <polymerase ribozyme fitness (log ratio)>
-4.04

$$$$
>  <mutationKey>
C3U A5G C34U G61C C62G C94U U109A C115U

>  <polymerase ribozyme fitness (log ratio)>
-6.29

$$$$
>  <mutationKey>
C34U G60U C99U

>  <polymerase ribozyme fitness (log ratio)>
-3.7

$$$$
>  <mutationKey>
A41C G48U A111C

>  <polymerase ribozyme fitness (log ratio)>
-3.12

$$$$
